Reference source for all entries: the supplement of paper PMC10567573

B1: IKZF1 (parent)
chain: YHSQDRYEFSSHITRGEHRFHMS

- Variants of: B1
- PROCEDURE_TEXT: protein stability index of a GFP-peptide fusion (GPS, HEK-293T) (PSI 1-6); higher = more stable;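 further: lentivirally expressed fusions sorted by FACS into six bins by GFP to DsRed ratio, PSI derived from sequencing read proportions per bin multiplied by bin number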
- STUDY_CONDITIONS: c terminus: native
MEASURED_PROPERTY: protein stability index
Number, no unit, nothing else.

These recorded examples may help you get a feel for the data.
Find the recorded protein stability index belonging to YHSQDRYEFSSHIHRGEHRFHMS and report it.
1.99

Find the recorded protein stability index belonging to YHSQDRYEFSSHITRGEHRFHVS and report it.
2

Find the recorded protein stability index belonging to YHSQDRYEFSKHITRGEHRFHMS and report it.
1.95

Find the recorded protein stability index belonging to YHSQDRYEFSEHITRGEHRFHMS and report it.
2.15

Find the recorded protein stability index belonging to YHSQDRYEFSSGITRGEHRFHMS and report it.
3.61

Alright, here's another variant for you.
Find the recorded protein stability index belonging to YHSQDRYEFSSHITRGEHRGHMS and report it.
1.67
